Entries annotated with measured bioavailability
Assay: Oral bioavailability in Sprague-Dawley CD rat at 1 mg/kg
Type: ADME, organism-based
Details: in vivo
Quantity: bioavailability (%)

Record Smiles | Result
COc1cc(Nc2c(C(N)=O)cnc3c(C)cc(S(C)(=O)=O)cc23)ccc1F | 82
COc1cc(Nc2c(C(N)=O)cnc3ccc(S(C)(=O)=O)cc23)ccc1F | 65
CS(=O)(=O)c1ccc2ncc(C(N)=O)c(Nc3cccc(C#N)c3)c2c1 | 23
CS(=O)(=O)c1ccc2ncc(C(N)=O)c(Nc3cccc4c3CCO4)c2c1 | 38
COc1cccc(Nc2c(C(N)=O)cnc3ccc(S(C)(=O)=O)cc23)c1 | 10
CS(=O)(=O)c1ccc2ncc(C(N)=O)c(Nc3cccc(Cl)c3F)c2c1 | 47
Cc1cc(S(C)(=O)=O)cc2c(Nc3cccc(C#N)c3)c(C(N)=O)cnc12 | 27
